IC50 overview
Test system: primary AML samples
Assay: Ex vivo drug sensitivity of primary AML samples, MTS, 72 h
Type: cell-based, human
Settings: Homo sapiens, read-out: IC50 estimate, probit mixed effects population curve, FLT3 wild-type samples (n = 23)
Field: numeric (nM). Do not append units.

CC(C)(C)c1cc(NC(=O)Nc2ccc(-c3cn4c(n3)sc3cc(OCCN5CCOCC5)ccc34)cc2)no1	944

# input for lookup
Query :: For the compound `C1=C/COCc2cc(ccc2OCCN2CCCC2)Nc2nccc(n2)-c2cccc(c2)COC/1` , what IC50 is on record?
Result :: 140

----------
Tested on: primary AML samples
Assay: Ex vivo drug sensitivity of primary AML samples, MTS, 72 h
Format: cell-based, human
Conditions: Homo sapiens, 72 h, read-out: Median IC50, 46 primary AML samples, 72 h
IC50 overview
Field: numeric (nM). Do not append units.

C1=C/COCc2cc(ccc2OCCN2CCCC2)Nc2nccc(n2)-c2cccc(c2)COC/1 [pacritinib]	113

Query :: For the molecule CC(C)(C)c1cc(NC(=O)Nc2ccc(-c3cn4c(n3)sc3cc(OCCN5CCOCC5)ccc34)cc2)no1 [quizartinib] , what IC50 is on record?
Result :: 376
